Just for reference, PubChem BioAssay AID1578 is where these values come from.

Test: NOD1 signaling inhibitors, primary screen, cell-based, luminescence, uHTS (AID 1578);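 further: HEK-293T reporter cells stimulated with the NOD1 agonist gamma-tri-DAP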
Details: NOD1-driven NF-kB luciferase reporter cells, at 4 µM, stronger effect = higher value
The whole screen tested about 290,000 compounds, of which about 3,000 (1%) were called active. Only a selection was taken, and actives are over-represented in it overall.
MEASURE: inhibition (%)

>  <COMPOUND>
COC(=O)c1cn(NC(=O)c2cnccn2)c(=O)c2ccccc12

>  <NUMBER>
3

$$$$
>  <COMPOUND>
O=C(NCc1cccnc1)c1ccc2c(c1)C(=O)N(Cc1ccccc1)C2=O

>  <NUMBER>
-4.4

$$$$
>  <COMPOUND>
CN1/C(=C/c2cccc[n+]2C)Sc2ccccc21

>  <NUMBER>
-2.3

$$$$
>  <COMPOUND>
COc1cc(S(=O)(=O)n2nc(C)cc2C)ccc1Cl

>  <NUMBER>
-30.9

$$$$
>  <COMPOUND>
CC1=NCCN1S(=O)(=O)c1cc([N+](=O)[O-])ccc1Cl

>  <NUMBER>
-40.2

$$$$
>  <COMPOUND>
O=C(Nn1cc(C(=O)Nc2ccc(F)cc2F)c2ccccc2c1=O)c1cnccn1

>  <NUMBER>
-21.1

$$$$
>  <COMPOUND>
Cc1ccc(S(=O)(=O)N2c3ccccc3OCC2c2ccccc2)cc1 (stereo not drawn)

>  <NUMBER>
-19.1

$$$$
>  <COMPOUND>
CN(C)CCCn1c(N)c(C#N)c2nc3ccccc3nc21

>  <NUMBER>
5.6

$$$$
>  <COMPOUND>
O=C(N[C@@H]1CCC(=O)N(CC[C@H](Oc2ccccc2)c2ccccc2)CC1)OCc1ccccc1

>  <NUMBER>
53.8

$$$$
>  <COMPOUND>
COc1ccc(Oc2nc3c(c(=O)n(C)c(=O)n3C)n2C)cc1

>  <NUMBER>
18.3

$$$$
>  <COMPOUND>
CN(C)c1nc(/C=C(\C#N)C(N)=O)c(Cl)n1-c1ccc(F)cc1

>  <NUMBER>
-6.6

$$$$
>  <COMPOUND>
COCCNC(=O)/C(C#N)=C/c1nc(N(C)C)n(-c2ccc(F)cc2)c1Cl

>  <NUMBER>
-7.8

$$$$
>  <COMPOUND>
CCc1ccc(OCC(=O)NNC(=O)c2nn(CC)c(=O)c3ccccc23)cc1

>  <NUMBER>
-23.6

$$$$
>  <COMPOUND>
COCC(C)N1CCC(n2nccc2NC(=O)CCCc2ccccc2)CC1 (stereo not drawn)

>  <NUMBER>
-1.8

$$$$
>  <COMPOUND>
COc1ccc(O)c(-c2[nH]ncc2C(=O)c2ccccc2C)c1

>  <NUMBER>
26.5

$$$$
>  <COMPOUND>
CC1COc2ccccc2N1C(=O)c1ccccc1Cl (stereo not drawn)

>  <NUMBER>
4.6

$$$$
>  <COMPOUND>
CCCCCn1c(N)c(C#N)c2nc3ccccc3nc21

>  <NUMBER>
8.5

$$$$
>  <COMPOUND>
CN(CC(=O)Nc1ccc(Cl)c(Cl)c1)C1CCCCC1

>  <NUMBER>
-29.4

$$$$
>  <COMPOUND>
Cc1scc(C(=O)Nn2cnnc2)c1-c1ccccc1

>  <NUMBER>
-12.5

$$$$
>  <COMPOUND>
Cc1cccc(-c2nnc(SCC(=O)NC3CC3)n2C)c1

>  <NUMBER>
-27.5

$$$$
>  <COMPOUND>
Cc1nnc(NC(=O)CN2CCN(Cc3ccccc3Cl)CC2)s1

>  <NUMBER>
-8.9

$$$$
>  <COMPOUND>
Cn1c(SCC(=O)NC2CCCCC2)nnc1-c1ccc(N)cc1

>  <NUMBER>
-10.1

$$$$
>  <COMPOUND>
C=CCn1c(SCc2cc(=O)n3cc(C)ccc3n2)nnc1-c1ccc(F)cc1

>  <NUMBER>
-11.1

$$$$
